- Test system: NCI-H226 lung
- PROTOCOL_NOTES: NCI tumour cell line growth inhibition, 48 h
Where a SMILES comes first, the peptide text is derived from it. Bridges are numbered along the chain shown (N, C = ends). [ ]: non-standard residue; d: D form. The star is where a group is joined. ξ: configuration not given here. ξDab(CH2SO3H) = NC(CCNCS(=O)(=O)O)C(=O)O; Heptanoyl(6-Me) = CC(C)CCCCC(=O)*; Dab = NCC[CH](N)C(=O)O
TGI for assorted compounds

{"columns": ["COMPOUND", "TGI"],
 "data": [
  ["CCCN(CCC)C(=S)N/N=C/c1ccccn1", "1.14 µM"],
  ["O=C(O)c1nc2ccc(C(F)(F)F)cc2nc1NCc1ccc(Cl)c(Cl)c1", "44.1 µM"],
  ["COc1cc(/C(=C2/O[C@@H]([C@H]3COC(C)(C)O3)[C@H]3OC(C)(C)O[C@@H]23)c2ccc3ccccc3c2)cc(OC)c1OC", "60 µM"],
  ["O=C1[C@@H]2C(c3ccccc3[N+](=O)[O-])=[N+](c3ccccc3)O[C@@H]2C(=O)N1c1ccc(Cc2ccc(N3C(=O)[C@H]4C(c5ccccc5[N+](=O)[O-])=[N+](c5ccccc5)O[C@H]4C3=O)cc2)cc1", "> 100 µM"],
  ["N=C(N)SCc1c2ccccc2c(CSC(=N)N)c2ccccc12", "30.6 µM"],
  ["COc1cc2cc(C(=O)Nc3cc4n(n3)-c3ccccc3C4)[nH]c2c(OC)c1OC", "3.95 µM"],
  ["C=CCN1C[C@H](C)N([C@@H](c2ccc(C(=O)N3CCCCC3)cc2)c2cccc(OC)c2)C[C@H]1C", "> 100 µM"],
  ["CC1=NC2c3c(-c4ccc(Cl)cc4)cn(-c4ccc(C)cc4)c3N=CN2N1 (stereo not drawn)", "> 100 µM"]
]}

Prompt line: Using the record for CCC(C)C1NC(=O)C(CCNCS(=O)(=O)O)NC(=O)C(NC(=O)C(CCNCS(=O)(=O)O)NC(=O)C(NC(=O)C(CCNCS(=O)(=O)O)NC(=O)CCCCC(C)C)C(C)O)CCNC(=O)C(C(C)O)NC(=O)C(CCNCS(=O)(=O)O)NC(=O)C(CCNCS(=O)(=O)O)NC(=O)C(C(C)CC)NC1=O (stereo not drawn) ({Heptanoyl(6-Me)}-[ξDab(CH2SO3H)]T[ξDab(CH2SO3H)][Dab][ξDab(CH2SO3H)]II[ξDab(CH2SO3H)][ξDab(CH2SO3H)]T; lactam 4-C; configuration not given here) , report its TGI.
Response line: > 25 µM

Prompt line: Using the record for `O=C1/C(=C/c2ccco2)N=C2Sc3c(nc[nH]c3=O)N12` , report its TGI.
Response line: > 100 µM

Prompt line: Using the record for `O=C(/C(=C/c1ccc([N+](=O)[O-])cc1)SCc1ccc(Cl)cc1)c1ccc(F)cc1` , report its TGI.
Response line: > 41.6 µM

Prompt line: Using the record for CCOC(=O)NC/C=C/COC1CCCCO1 (stereo not drawn) , report its TGI.
Response line: > 100 µM

Prompt line: Using the record for `Cc1nn2c(nc1=O)sc1ccc3ccccc3c12` , report its TGI.
Response line: > 100 µM

Prompt line: Using the record for `CC(=O)O[C@@H]1C(=O)N(c2ccccc2)[C@@H]1c1cc2ccccc2c2ccccc12` , report its TGI.
Response line: > 100 µM

Prompt line: Using the record for CCCCC(C(=O)CCC(=O)Nc1ccc(Cl)c(Cl)c1)C(=O)C(C)C (stereo not drawn) , report its TGI.
Response line: > 100 µM

Prompt line: Using the record for `Cc1nc(N2N=C(c3ccc(Cl)cc3)CCC2=O)sc1[N+](=O)[O-]` , report its TGI.
Response line: > 100 µM

Prompt line: Using the record for `OC[P+](CO)(CO)C12CC3CC(CC(C3)C1)C2` , report its TGI.
Response line: > 100 µM

Prompt line: Using the record for `CN(C)CCCSc1nc2c(c(=N)n1-c1ccccc1)c(=S)n(-c1ccccc1)c(=S)n2-c1ccccc1` , report its TGI.
Response line: 28.4 µM

Data origin: PubChem BioAssay (NCI)
